Target: Neuronal acetylcholine receptor; alpha3/beta4 (Rattus norvegicus, UniProt P04757+P12392)
Sequence (P04757 whole entry): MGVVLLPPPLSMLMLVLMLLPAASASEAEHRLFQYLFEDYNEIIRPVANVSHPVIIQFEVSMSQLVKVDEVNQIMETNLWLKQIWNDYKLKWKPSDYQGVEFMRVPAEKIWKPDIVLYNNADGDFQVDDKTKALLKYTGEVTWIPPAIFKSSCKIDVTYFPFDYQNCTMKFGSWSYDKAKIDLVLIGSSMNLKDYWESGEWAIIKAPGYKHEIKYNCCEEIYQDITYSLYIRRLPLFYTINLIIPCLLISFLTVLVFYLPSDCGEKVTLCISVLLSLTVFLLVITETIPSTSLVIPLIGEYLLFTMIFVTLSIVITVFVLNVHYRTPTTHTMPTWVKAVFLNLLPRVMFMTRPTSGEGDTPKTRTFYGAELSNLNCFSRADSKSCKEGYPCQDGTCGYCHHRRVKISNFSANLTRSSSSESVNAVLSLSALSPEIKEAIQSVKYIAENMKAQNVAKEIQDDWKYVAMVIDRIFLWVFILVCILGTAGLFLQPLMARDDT
Sequence (P12392 whole entry): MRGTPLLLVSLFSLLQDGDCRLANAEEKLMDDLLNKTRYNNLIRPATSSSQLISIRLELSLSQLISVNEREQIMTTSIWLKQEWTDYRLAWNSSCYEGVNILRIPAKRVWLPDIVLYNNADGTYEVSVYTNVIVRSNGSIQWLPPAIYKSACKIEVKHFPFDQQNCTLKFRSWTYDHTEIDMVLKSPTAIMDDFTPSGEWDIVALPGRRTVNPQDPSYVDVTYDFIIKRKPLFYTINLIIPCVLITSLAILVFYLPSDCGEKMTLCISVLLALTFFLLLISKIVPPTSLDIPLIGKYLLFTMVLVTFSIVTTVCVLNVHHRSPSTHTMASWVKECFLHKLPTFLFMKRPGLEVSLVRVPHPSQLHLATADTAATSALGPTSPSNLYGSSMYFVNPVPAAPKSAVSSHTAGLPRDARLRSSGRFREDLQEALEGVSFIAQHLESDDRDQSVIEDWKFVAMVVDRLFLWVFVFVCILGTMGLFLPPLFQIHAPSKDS
Assay: Displacement of [3H]epibatidine from rat alpha3beta4 nAChR expressed in […] cells after 3 hrs
For each entry below, report its Ki value.

Previously resolved entries follow.
* CC1CN(Cc2ccccc2)CCC1N1C(=O)Cc2ccccc21 (stereo not given) | > 10 µM
* CCC(C)(C)C1CCC(N2CCC(C3C(=O)Nc4ccccc43)CC2)CC1 (stereo not given) | > 10 µM
* CC(c1ccc(C2CCCCC2)cc1)N1CCC(N2C(=O)Cc3ccccc32)CC1 (stereo not given) | > 10 µM
* CN1CC2CC1CC(N1C(=O)Cc3ccccc31)C2 (stereo not given) | > 10 µM

Now for a further molecule.
So the reported Ki for O=C1Cc2ccccc2N1C1CC2CC(C1)N(Cc1ccccc1)C2 (stereo not given) , on Neuronal acetylcholine receptor; alpha3/beta4 (Rattus norvegicus, UniProt P04757+P12392), turned out to be 1.84 µM
